Each entry below carries its reported IC50.
system tested: DGKα (Homo sapiens (Human), UniProt P23743)
Sequence (P23743 whole entry, looked up): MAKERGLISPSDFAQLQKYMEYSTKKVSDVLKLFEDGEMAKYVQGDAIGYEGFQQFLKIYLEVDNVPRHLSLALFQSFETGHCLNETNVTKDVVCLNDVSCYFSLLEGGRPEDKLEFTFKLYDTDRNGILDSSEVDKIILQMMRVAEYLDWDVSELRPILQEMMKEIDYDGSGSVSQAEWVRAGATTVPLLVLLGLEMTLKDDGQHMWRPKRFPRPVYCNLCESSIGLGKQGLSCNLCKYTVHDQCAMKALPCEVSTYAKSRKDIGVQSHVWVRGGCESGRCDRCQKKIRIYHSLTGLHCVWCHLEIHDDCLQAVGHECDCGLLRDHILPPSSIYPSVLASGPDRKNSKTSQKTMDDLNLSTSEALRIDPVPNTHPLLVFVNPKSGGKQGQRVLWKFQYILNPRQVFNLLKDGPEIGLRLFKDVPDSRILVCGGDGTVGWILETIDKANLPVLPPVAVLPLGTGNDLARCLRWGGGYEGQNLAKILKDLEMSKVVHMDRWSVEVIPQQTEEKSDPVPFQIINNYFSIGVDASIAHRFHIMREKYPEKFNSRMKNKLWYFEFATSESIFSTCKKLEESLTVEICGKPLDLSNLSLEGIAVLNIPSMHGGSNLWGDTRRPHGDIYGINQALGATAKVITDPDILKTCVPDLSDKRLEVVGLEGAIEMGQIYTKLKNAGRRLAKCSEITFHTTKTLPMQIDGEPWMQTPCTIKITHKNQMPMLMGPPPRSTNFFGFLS
procedure text: biochemical
Type: biochemical
measurement conditions: liposome (LIPGLO) assay; read-out: DGKα LIPGLO IC50
Give the value; after it, write the unit.

Some entries whose results are on file:
compound: Cn1c(=O)c(C#N)c(N2CCC(Oc3ccc(C(F)(F)F)cc3)CC2)c2nc(Cl)ccc21
IC50: 0.98 µM

compound: Cc1cccc(OC2CCN(c3c(C#N)c(=O)n(C)c4ccc(Cl)nc34)CC2)c1
IC50: 0.15 µM

compound: CC[C@@H]1CN(c2cc(=O)n(C)c3ccc(C#N)nc23)CC[C@H]1Oc1cccc(C(C)C)c1 (racemic) [Example 137]
IC50: 0.036 µM

Input line: Which measured IC50 value corresponds to Cn1c(=O)c([N+](=O)[O-])c(N2CCC(Oc3ccc(OC(F)(F)F)cc3)CC2)c2cc(F)ccc21 ?
Output line: 0.11 µM

Input line: Which measured IC50 value corresponds to Cn1c(=O)cc(N2CCC(Oc3ccc(C4CCCCC4)cc3)CC2)c2nc(C#N)ccc21 ?
Output line: 0.74 µM

Input line: Which measured IC50 value corresponds to Cn1c(=O)c(C#N)c(N2CCC(Oc3ccc(OC(F)(F)F)cc3Cl)CC2)c2nc(Cl)ccc21 ?
Output line: 1.1 µM

Input line: Which measured IC50 value corresponds to CCC(C)(C)c1ccc(O[C@@H]2CCN(c3cc(=O)n(C)c4ccc(C#N)nc34)C[C@H]2C)cc1 (single isomer, unassigned) [Example 83] ?
Output line: 0.28 µM

Input line: Which measured IC50 value corresponds to C[C@@H]1CN(c2cc(=O)n(C)c3ccc(C#N)nc23)CC[C@H]1Oc1ccc(C(F)(F)F)cc1F ?
Output line: 0.34 µM

Input line: Which measured IC50 value corresponds to COc1ccc2c(n1)c(N1CCC(Oc3ccc(OC(F)(F)F)cc3)CC1)c(C#N)c(=O)n2C ?
Output line: 2.7 µM

Input line: Which measured IC50 value corresponds to C[C@@H]1CN(c2cc(=O)n(C)c3ccc(C#N)nc23)CC[C@H]1Oc1cccc(C2CC2)c1 (single isomer, unassigned) [Example 93] ?
Output line: 0.3 µM

Input line: Which measured IC50 value corresponds to Cn1c(=O)c([N+](=O)[O-])c(N2CCC(Oc3ccc(OC(F)(F)F)cc3)CC2)c2nc(C#N)ccc21 ?
Output line: 0.23 µM

Input line: Which measured IC50 value corresponds to C[C@@H]1CN(c2cc(=O)n(C)c3ccc(C#N)nc23)CC[C@H]1Oc1ccc(C2CCCC2)cc1 (single isomer, unassigned) [Example 101] ?
Output line: 0.43 µM

Input line: Which measured IC50 value corresponds to CC[C@@H]1CN(c2cc(=O)n(C)c3ccc(C#N)nc23)CC[C@H]1Oc1cccc(OC(F)(F)F)c1 (single isomer, unassigned) [Example 162] ?
Output line: 1.7 µM

Input line: Which measured IC50 value corresponds to Cn1c(=O)c(C#N)c(N2CCC(Oc3ccccc3C#N)CC2)c2nc(Cl)ccc21 ?
Output line: 1.5 µM

Input line: Which measured IC50 value corresponds to CC[C@@H]1CN(c2cc(=O)n(C)c3ccc(C#N)nc23)CC[C@H]1Oc1cccc(C(F)(F)F)c1 (single isomer, unassigned) [Example 141] ?
Output line: 0.068 µM

Input line: Which measured IC50 value corresponds to CC(C)c1ccc(O[C@H]2CCN(c3cc(=O)n(C)c4ccc(C#N)nc34)C[C@H]2C)cc1 [Example 182] ?
Output line: 1.1 µM

Input line: Which measured IC50 value corresponds to CN(C)C(=O)c1ccc(OC2CCN(c3c(C#N)c(=O)n(C)c4ccc(Cl)nc34)CC2)cc1 ?
Output line: 0.73 µM

Input line: Which measured IC50 value corresponds to CC(C)c1cccc(O[C@@H]2CCN(c3cc(=O)n(C)c4ccc(C#N)nc34)C[C@H]2C)c1 ?
Output line: 0.017 µM

Input line: Which measured IC50 value corresponds to CC(C)c1ccc(O[C@@H]2CCN(c3cc(=O)n(C)c4ccc(C#N)nc34)C[C@H]2C)cc1 [Example 94] ?
Output line: 0.08 µM

Input line: Which measured IC50 value corresponds to Cc1ccc(OC2CCN(c3c(C#N)c(=O)n(C)c4ccc(Cl)nc34)CC2)cc1 ?
Output line: 0.77 µM

Input line: Which measured IC50 value corresponds to Cn1c(=O)cc(N2CCC(Oc3ccc(C(C)(C)C)nn3)CC2)c2nc(C#N)ccc21 ?
Output line: 1.7 µM

----------
Tested on: human venous whole blood, CD8 positive population (pERK)
procedure text: DGK human whole blood pERK assay
Assay type: cell-based
measurement conditions: human whole blood pERK; read-out: DGK HWB
measurement label: pEC50
Answer as the number alone; pEC50 is minus log10 of concentration in mol/L.

Input line: Which measured pEC50 value corresponds to CCO[C@H]1CN(c2cc(=O)n(C)c3ccc(C#N)nc23)CC[C@@H]1Oc1ccccc1C(F)(F)F [Example 345] ?
Output line: 6.09

Input line: Which measured pEC50 value corresponds to CCO[C@H]1CN(c2cc(=O)n(C)c3ccc(C#N)nc23)CC[C@@H]1Oc1cccc(C(F)(F)F)n1 (relative stereo) [Example 363] ?
Output line: 5.96

Input line: Which measured pEC50 value corresponds to CCO[C@H]1CN(c2cc(=O)n(C)c3ccc(C#N)nc23)CC[C@H]1Oc1ccc(OC(C)C)cn1 (relative stereo) [Example 372] ?
Output line: 4.74

Input line: Which measured pEC50 value corresponds to C[C@@H]1CN(c2cc(=O)n(C)c3ccc(C#N)nc23)CC[C@@H]1Oc1ccc(C(F)F)cn1 (single isomer, unassigned) ?
Output line: 4.89

Input line: Which measured pEC50 value corresponds to CCO[C@H]1CN(c2cc(=O)n(C)c3ccc(C#N)nc23)CC[C@@H]1Oc1ccc(C(F)(F)F)cc1 [Example 344] ?
Output line: 4.70

Input line: Which measured pEC50 value corresponds to CC1CN(c2cc(=O)n(C)c3ccc(C#N)nc23)CCC1N(C)C(=O)c1ccc(F)cc1 (single isomer, unassigned) [Example 284] ?
Output line: 4.70

----------
system tested: human DGKζ (Homo sapiens (Human), UniProt Q13574)
Sequence (Q13574 whole entry, looked up): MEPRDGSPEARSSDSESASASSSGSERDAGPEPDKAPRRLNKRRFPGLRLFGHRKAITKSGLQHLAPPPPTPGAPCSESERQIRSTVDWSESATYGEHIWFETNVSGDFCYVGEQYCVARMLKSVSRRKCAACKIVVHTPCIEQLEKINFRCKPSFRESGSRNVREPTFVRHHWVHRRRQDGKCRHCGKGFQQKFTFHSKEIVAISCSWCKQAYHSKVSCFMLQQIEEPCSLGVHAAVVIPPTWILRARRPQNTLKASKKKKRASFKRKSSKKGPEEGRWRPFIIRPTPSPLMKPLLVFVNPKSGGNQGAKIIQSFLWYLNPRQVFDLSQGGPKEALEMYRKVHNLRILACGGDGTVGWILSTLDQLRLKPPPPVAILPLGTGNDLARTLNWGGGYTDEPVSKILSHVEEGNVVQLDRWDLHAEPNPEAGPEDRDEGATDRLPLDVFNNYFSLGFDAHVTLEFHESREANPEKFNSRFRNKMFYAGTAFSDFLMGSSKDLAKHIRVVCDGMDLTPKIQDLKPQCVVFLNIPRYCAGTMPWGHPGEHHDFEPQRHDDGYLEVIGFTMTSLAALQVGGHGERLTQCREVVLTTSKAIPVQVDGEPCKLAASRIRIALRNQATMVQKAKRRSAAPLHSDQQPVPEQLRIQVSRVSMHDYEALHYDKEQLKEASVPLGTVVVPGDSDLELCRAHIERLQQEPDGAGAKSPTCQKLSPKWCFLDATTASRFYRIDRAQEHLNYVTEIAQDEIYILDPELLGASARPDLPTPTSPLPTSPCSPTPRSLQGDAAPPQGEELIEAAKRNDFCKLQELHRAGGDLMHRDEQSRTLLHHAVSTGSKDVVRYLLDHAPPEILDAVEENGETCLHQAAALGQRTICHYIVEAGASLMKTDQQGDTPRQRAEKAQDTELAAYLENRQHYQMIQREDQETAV
procedure text: biochemical
Assay type: biochemical
measurement conditions: Table A; liposome (LIPGLO) assay; read-out: DGKζ
Each entry below carries its reported pIC50.
Answer as the number alone; pIC50 is minus log10 of concentration in mol/L.

Some entries whose results are on file:
molecule: CC1CN(c2c(C#N)c(=O)n(C)c3ccc(C#N)nc23)CCC1N(C)Cc1ccc(F)cc1 (single isomer, unassigned) [Example 324]
pIC50: 3.89
//
molecule: CC1CN(c2c(C#N)c(=O)n(C)c3ccc(C#N)nc23)CCC1N(C)Cc1ccc(F)cc1 (single isomer, unassigned) [Example 322]
pIC50: 4.11
//
molecule: CC(C)c1ccc(O[C@H]2CCN(c3cc(=O)n(C)c4ccc(C#N)nc34)C[C@H]2C)cc1 (single isomer, unassigned) [Example 184]
pIC50: 5.22
//
molecule: CCC(C)(C)c1ccc(O[C@@H]2CCN(c3c(C#N)c(=O)n(C)c4ccc(C#N)nc34)C[C@H]2C)cc1 (single isomer, unassigned) [Example 231]
pIC50: 4.08
//
molecule: CC[C@@H]1CN(c2cc(=O)n(C)c3ccc(C#N)nc23)CC[C@H]1Oc1ccc(OC(C)C)cn1 (single isomer, unassigned) [Example 193]
pIC50: 5.66

Input line: Which measured pIC50 value corresponds to CO[C@@H]1CN(c2nc(=O)n(C)c3ccc(C#N)nc23)CC[C@H]1Oc1cccc(C(F)(F)F)c1 (single isomer, unassigned) [Example 276] ?
Output line: 5.70

Input line: Which measured pIC50 value corresponds to CC[C@@H]1CN(c2cc(=O)n(C)c3ccc(C#N)nc23)[C@@H](C)C[C@@H]1Oc1cccc(C(F)(F)F)c1 ?
Output line: 5.51

----------
system tested: human DGKζ (Homo sapiens (Human), UniProt Q13574)
procedure text: biochemical
Format: biochemical
measurement conditions: Table A; liposome (LIPGLO) assay; read-out: DGKζ
Each entry below carries its reported log10(IC50).
Hi team, quick reminder: these entries are log10 of IC50 (µM).

Some entries whose results are on file:
compound: Cn1c(=O)cc(N2CC[C@H](Oc3cccc(C(F)(F)F)c3)[C@@H](O)C2)c2nc(C#N)ccc21 (racemic) [Example 259]
log10(IC50): 2.18

compound: CC1CN(c2cc(=O)n(C)c3ccc(C#N)nc23)CCC1N(C)C(=O)c1ccc(F)cc1 (single isomer, unassigned) [Example 286]
log10(IC50): 0.96

Input line: Which measured log10(IC50) value corresponds to Cn1c(=O)nc(N2CC[C@@H](Oc3cccc(C(F)(F)F)c3)[C@H](O)C2)c2nc(Cl)ccc21 (racemic) [Example 272] ?
Output line: 1.38

Input line: Which measured log10(IC50) value corresponds to CC1CN(c2cc(=O)n(C)c3ccc(C#N)nc23)CCC1N(C)C(=O)c1ccc(F)cc1 (single isomer, unassigned) [Example 285] ?
Output line: 2.11

Input line: Which measured log10(IC50) value corresponds to CC(C)Oc1ccc(OC2C[C@H](C)N(c3nc(=O)n(C)c4ccc(C#N)nc34)C[C@@H]2C)nc1 (mixture of isomers) ?
Output line: -0.06

Input line: Which measured log10(IC50) value corresponds to CO[C@@H]1CN(c2cc(=O)n(C)c3ccc(C#N)nc23)CC[C@H]1Oc1cccc(C(F)(F)F)c1 (single isomer, unassigned) [Example 261] ?
Output line: 0.15
